- Procedure Summary: Spinal cord pharmacokinetics after a single 1 mg/kg dose
- Assay type: in vivo, C57BL/6J mice
- Setup Conditions: C57BL/6J, mouse, spinal cord, ip, 1 mg/kg
Measure: k el (s⁻¹)
Please reply with the bare figure in s⁻¹ and do not write the unit itself.

Input CC(=O)N[C@@H](Cc1ccccc1)C(=O)N[C@H]1CCCNC(=O)[C@H](CCCNC(=N)N)NC(=O)[C@H](Cc2c[nH]c3ccccc23)NC(=O)[C@@H](CC2CCCCC2)NC(=O)[C@@H]2CCCN2C1=O [PMX53, Ac-Phe-[Orn-Pro-dCha-Trp-Arg]] . Output k el: 0.000242

###

- Procedure Summary: Brain pharmacokinetics after a single 1 mg/kg dose
- Assay type: in vivo, C57BL/6J mice
- Setup Conditions: C57BL/6J, mouse, brain, po, 1 mg/kg
Measure: Cmax (ng/g)
Please reply with the bare figure in ng/g and do not write the unit itself.

Input CC(=O)N[C@@H](Cc1ccccc1)C(=O)N[C@H]1CCCNC(=O)[C@H](CCCNC(=N)N)NC(=O)[C@H](Cc2c[nH]c3ccccc23)NC(=O)[C@@H](CC2CCCCC2)NC(=O)[C@@H]2CCCN2C1=O [PMX53, Ac-Phe-[Orn-Pro-dCha-Trp-Arg]] . Output Cmax: 77

###

- Procedure Summary: Spinal cord pharmacokinetics after a single 1 mg/kg dose
- Assay type: in vivo, C57BL/6J mice
- Setup Conditions: C57BL/6J, mouse, spinal cord, sc, 1 mg/kg
Measure: k el
Could you give the number and then its unit, please?

Input CC(=O)N[C@@H](Cc1ccccc1)C(=O)N[C@H]1CCCNC(=O)[C@H](CCCNC(=N)N)NC(=O)[C@H](Cc2c[nH]c3ccccc23)NC(=O)[C@@H](CC2CCCCC2)NC(=O)[C@@H]2CCCN2C1=O [PMX53, Ac-Phe-[Orn-Pro-dCha-Trp-Arg]] . Output k el: 0.000519 s⁻¹

###

- Procedure Summary: Brain pharmacokinetics after a single 1 mg/kg dose
- Type: in vivo, C57BL/6J mice
- Setup Conditions: C57BL/6J, mouse, brain, ip, 1 mg/kg
Measure: k el (s⁻¹)
Please reply with the bare figure in s⁻¹ and do not write the unit itself.

Input CC(=O)N[C@@H](Cc1ccccc1)C(=O)N[C@H]1CCCNC(=O)[C@H](CCCNC(=N)N)NC(=O)[C@H](Cc2c[nH]c3ccccc23)NC(=O)[C@@H](CC2CCCCC2)NC(=O)[C@@H]2CCCN2C1=O [PMX53, Ac-Phe-[Orn-Pro-dCha-Trp-Arg]] . Output k el: 0.0002
